- experimental target: T1, neuropeptide Y1 receptor, P25929
- T1 chain: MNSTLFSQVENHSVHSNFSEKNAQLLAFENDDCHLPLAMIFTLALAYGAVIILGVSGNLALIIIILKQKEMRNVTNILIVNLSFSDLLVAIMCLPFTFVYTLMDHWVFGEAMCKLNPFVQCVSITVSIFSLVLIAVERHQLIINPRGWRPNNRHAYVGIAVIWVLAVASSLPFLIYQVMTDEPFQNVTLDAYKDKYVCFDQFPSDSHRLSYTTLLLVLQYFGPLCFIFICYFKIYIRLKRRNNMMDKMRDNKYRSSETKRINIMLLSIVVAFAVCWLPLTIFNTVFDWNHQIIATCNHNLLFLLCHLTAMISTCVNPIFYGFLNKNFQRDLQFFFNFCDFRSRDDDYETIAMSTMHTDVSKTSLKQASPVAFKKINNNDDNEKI
- protocol: radioligand competition, [125I]-hPYY, SK-N-MC membranes
property label: Y1RBA (nM)

Reference set (5 entries):
YPIKPEAPGEDASPEELAQYAADLKRYINMLTRQRY (modifications not checked) [SEQ ID NO 321] | 12
APLEPVYPGDNATPEQMNKYYASLRHYLNLVTRQRY (modifications not checked) [SEQ ID NO 306] | 0.6
YPIKPEAPGEDASPEELAQYAADLRRYINMLTRPRY (modifications not checked) [SEQ ID NO 309] | 3.3
YPIKPEAPGEDASPEELNQYAADLRRYINMLTRQRY (modifications not checked) [SEQ ID NO 316] | 7.1
APLEPVYPGDNATPEQMNRYYASLRAYLNLVTRQRY (modifications not checked) [SEQ ID NO 308] | 1

[a] YAIKPEAPGEDASPEELAQYAADLRRYINMLTRQRY (modifications not checked) [SEQ ID NO 318]
[b] APLEPVYPGDNATPEELNRYYASLRHYLNLVTRQRY (modifications not checked) [SEQ ID NO 296]
Which has the higher Y1RBA, a or b ? Which one? Tell me its label.
a

[P] IKPEAPGEDASPEELAQYAADLRRYINMLTRPRY (modifications not checked) [SEQ ID NO 310]
[Q] APLEPVYPGDNATPEQMNRYYASLRHFLNLVTRQRY (modifications not checked) [SEQ ID NO 288]
[R] YPIKPEAPGEDASPDELAQYAADLRRYINMLTRQRY (modifications not checked) [SEQ ID NO 342]
[S] APLEPVYPGDNATPEQLNRYYASLRHYLNLVTRQRY (modifications not checked) [SEQ ID NO 295]
Order the 4 binders from highest to lowest Y1RBA. Use the labels to give the requested order.
P, R, Q, S

# credit: patent US20100099619A1
